# credit: PubChem BioAssay (NCATS)

test: qHTS of pediatric cancer cell lines to identify multiple opportunities for drug repurposing: Primary screen for U-2 OS cells (AID 1347096); details: U-2 OS viability, CellTiter-Glo luminescence, 48 h; series mostly up to 46 µM; note: nearly all actives have a fitted effect of over 50% in size
Results filed as inconclusive are left out. Active and inactive are the calls of the source. Calls come from the whole dose curve; as a rule, active = well fitted cell-killing curve with a large enough effect; inconclusive = small, poorly fitted or top-dose-only effect; inactive = flat fitted curve, though single readings scatter.
Give your call using only these classes: active, inactive

### Prompt Dear all, I need the recorded test outcome for `O=C1c2cccc(O)c2C(=O)c2c(O)cc(CO)cc21` , thank you.
### Response inactive

### Prompt Dear all, I need the recorded test outcome for `C[C@H]1C[C@H]2[C@@H]3CCC4=CC(=O)C=C[C@]4(C)[C@@H]3C(=O)C[C@]2(C)[C@@]1(O)C(=O)CO` , thank you.
### Response inactive

### Prompt Dear all, I need the recorded test outcome for `C[C@H]1[C@@H](OC(=O)CCC(=O)O)O[C@@H]2O[C@@]3(C)CC[C@@H]4[C@H](C)CC[C@@H]1[C@@]24OO3` , thank you.
### Response inactive

### Prompt Dear all, I need the recorded test outcome for CN(N=O)C(=O)N[C@H]1C(O)OC(CO)[C@@H](O)[C@H]1O (some centres undefined) , thank you.
### Response inactive

### Prompt Dear all, I need the recorded test outcome for `C=CC(=O)Nc1ccc2ncnc(Nc3ccc(OCc4cccc(F)c4)c(Cl)c3)c2c1` , thank you.
### Response active

### Prompt Dear all, I need the recorded test outcome for `O=[N+]([O-])c1cn2c(n1)OC[C@@H](OCc1ccc(OC(F)(F)F)cc1)C2` , thank you.
### Response inactive

### Prompt Dear all, I need the recorded test outcome for `COc1ccc(CCC(=O)c2c(O)cc(O[C@@H]3O[C@H](CO)[C@@H](O)[C@H](O)[C@@H]3O[C@@H]3O[C@@H](C)[C@H](O)[C@@H](O)[C@@H]3O)cc2O)cc1O` , thank you.
### Response inactive

### Prompt Dear all, I need the recorded test outcome for `O=C(O)CCCCCC(=O)NN=C1CCCC1` , thank you.
### Response inactive

### Prompt Dear all, I need the recorded test outcome for `Cn1cnc(=N)c2[nH]cnc21` , thank you.
### Response active

### Prompt Dear all, I need the recorded test outcome for `O=c1c(O)c(-c2ccc(O)c(O)c2)oc2cc(O)ccc12` , thank you.
### Response inactive

### Prompt Dear all, I need the recorded test outcome for `N#CC(=C(O)c1ccc(Cl)cc1Cl)c1nc2cc(Cl)ccc2c(=O)[nH]1` , thank you.
### Response inactive

### Prompt Dear all, I need the recorded test outcome for Oc1cc2c(cc1O)C1c3ccc(O)c(O)c3OCC1(O)C2 (centres undefined) , thank you.
### Response inactive

### Prompt Dear all, I need the recorded test outcome for `N#Cc1ccc(COC[C@H]2O[C@@H](n3c(NCc4ccc(Cl)c(Cl)c4)nc4c(N)ncnc43)[C@@H](O)[C@@H]2O)cc1` , thank you.
### Response inactive

### Prompt Dear all, I need the recorded test outcome for `c1cc(N[C@@H]2CCNC2)nc(-c2cnc3ccc(-c4cn[nH]c4)cn23)c1` , thank you.
### Response inactive

### Prompt Dear all, I need the recorded test outcome for CCCCCCCN(CC)CCCC(O)c1ccc(NS(C)(=O)=O)cc1 (centres undefined) , thank you.
### Response inactive

### Prompt Dear all, I need the recorded test outcome for `COC(=O)C=CC(=O)OC` , thank you.
### Response inactive

### Prompt Dear all, I need the recorded test outcome for `CC(C)c1cc(C(C)C)c(CC(=O)NS(=O)(=O)Oc2c(C(C)C)cccc2C(C)C)c(C(C)C)c1` , thank you.
### Response inactive

### Prompt Dear all, I need the recorded test outcome for `COc1cc(C(=O)NC2CCN(C)CC2)ccc1Nc1ncc2c(n1)N(C1CCCC1)CCC(=O)N2C(C)C` , thank you.
### Response inactive

### Prompt Dear all, I need the recorded test outcome for `C[C@@H](Cc1cc2c(c(C(N)=O)c1)N(CCCO)CC2)NCCOc1ccccc1OCC(F)(F)F` , thank you.
### Response inactive

###

Test: qHTS of pediatric cancer cell lines to identify multiple opportunities for drug repurposing: Primary screen for NB-EBc1 cells (AID 1347095)
Conditions: NB-EBc1 neuroblastoma viability, CellTiter-Glo luminescence, 48 h; series mostly up to 46 µM
Procedure: Drug repurposing or repositioning has been offered as a strategy for drug development in oncology programs. This approach has special potential for childhood cancers and other rare or orphan diseases, where the expected return on new drug development has been a disincentive to pharmaceuticals. […] We employed a titration-based paradigm (quantitative high-throughput screening or qHTS), where all compounds were tested at multiple concentrations for their effect on cell viability. […]
Results filed as inconclusive are left out. Active and inactive are the calls of the source. The call rests on the fitted dose curve; in most records, active means well fitted cell-killing curve with a large enough effect; inconclusive means small, poorly fitted or top-dose-only effect; inactive means no such curve, though single readings can be large or run the other way. Non-standard residues stand in square brackets, D forms with d. Residues, ends and D or L forms follow the SMILES beside them. *: point of attachment. Nva = CCC[C@H](N)C(=O)O; Cbz = O=C(OCc1ccccc1)*
Give your call using only these classes: label 1 for active, label 0 for inactive

### Prompt Dear all, I need the recorded test outcome for `COC1=C2C[C@@H](C)C[C@H](OC)[C@@H](O)[C@@H](C)C=C(C)[C@H](OC(N)=O)[C@@H](OC)C=CC=C(C)C(=O)NC(=CC1=O)C2=O` , thank you.
### Response label 1

### Prompt Dear all, I need the recorded test outcome for `COc1ccc(Nc2cc(-c3cnc(N)nc3)nc(N3CCOCC3)n2)cn1` , thank you.
### Response label 1

### Prompt Dear all, I need the recorded test outcome for `C=CC(=O)Nc1ccc2ncnc(Nc3ccc(OCc4cccc(F)c4)c(Cl)c3)c2c1` , thank you.
### Response label 1

### Prompt Dear all, I need the recorded test outcome for `CC(C)[C@H](CO)Nc1nc(Nc2cccc(Cl)c2)c2ncn(C(C)C)c2n1` , thank you.
### Response label 1

### Prompt Dear all, I need the recorded test outcome for `CCCc1nc(C(C)(C)O)c(C(=O)O)n1Cc1ccc(-c2ccccc2-c2nn[nH]n2)cc1` , thank you.
### Response label 0

### Prompt Dear all, I need the recorded test outcome for `c1cc(N[C@@H]2CCNC2)nc(-c2cnc3ccc(-c4cn[nH]c4)cn23)c1` , thank you.
### Response label 0

### Prompt Dear all, I need the recorded test outcome for `c1coc(CNc2ncnc3nc[nH]c23)c1` , thank you.
### Response label 0

### Prompt Dear all, I need the recorded test outcome for `CCOc1cc2ncc(C#N)c(Nc3ccc(OCc4ccccn4)c(Cl)c3)c2cc1NC(=O)C=CCN(C)C` , thank you.
### Response label 1

### Prompt Dear all, I need the recorded test outcome for `COC[C@H](NC(=O)c1cnc(C)s1)C(=O)N[C@@H](COC)C(=O)N[C@@H](Cc1ccccc1)C(=O)[C@@]1(C)CO1` , thank you.
### Response label 1

### Prompt Dear all, I need the recorded test outcome for `COc1ccc(C(C)=O)c(O)c1` , thank you.
### Response label 0

### Prompt Dear all, I need the recorded test outcome for `C[C@H](NCc1ccc(OCc2cccc(F)c2)cc1)C(N)=O` , thank you.
### Response label 1

### Prompt Dear all, I need the recorded test outcome for `COc1cc(OC)c(C=CS(=O)(=O)Cc2ccc(OC)c(NCC(=O)O)c2)c(OC)c1` , thank you.
### Response label 1

### Prompt Dear all, I need the recorded test outcome for CC1=C(C(=O)Nc2cc3cn[nH]c3cc2F)C(c2ccc(Cl)cc2F)N=C(c2ccnc(Cl)c2)N1 (stereo not given) , thank you.
### Response label 1

### Prompt Dear all, I need the recorded test outcome for `O=C(Nc1nnc(-c2ccco2)o1)c1cc(-c2ccccc2)nc2ccccc12` , thank you.
### Response label 1

### Prompt Dear all, I need the recorded test outcome for `C[C@H](NC(=O)C(C#N)=Cc1cccc(Br)n1)c1ccccc1` , thank you.
### Response label 1

### Prompt Dear all, I need the recorded test outcome for `NC(=O)Nc1cc(-c2ccc(CN3CCOCC3)cc2)sc1C(N)=O` , thank you.
### Response label 1

### Prompt Dear all, I need the recorded test outcome for `CC1(C)[C@H](O[C@H]2O[C@H](C(=O)O)[C@@H](O)[C@H](O)[C@H]2O[C@@H]2O[C@H](C(=O)O)[C@@H](O)[C@H](O)[C@H]2O)CC[C@@]2(C)[C@H]1CC[C@]1(C)[C@H]2C(=O)C=C2[C@H]3C[C@@](C)(C(=O)O)CC[C@]3(C)CC[C@]21C` , thank you.
### Response label 0

### Prompt Dear all, I need the recorded test outcome for COc1ccc2c(c1OC)C(=O)OC2[C@H]1c2c(cc3c(c2OC)OCO3)CCN1C (stereo not given in full) , thank you.
### Response label 1

### Prompt Dear all, I need the recorded test outcome for `COc1cc([C@@H]2c3cc4c(cc3[C@@H](O[C@@H]3O[C@@H]5CO[C@@H](c6cccs6)O[C@@H]5[C@H](O)[C@@H]3O)[C@H]3COC(=O)[C@H]23)OCO4)cc(OC)c1O` , thank you.
### Response label 1

### Prompt Dear all, I need the recorded test outcome for `CC(C)NC[C@@H](C(=O)N1CCN(c2ncnc3c2[C@H](C)C[C@H]3O)CC1)c1ccc(Cl)cc1` , thank you.
### Response label 1

### Prompt Dear all, I need the recorded test outcome for `CC(C=CC(=O)NO)=C[C@@H](C)C(=O)c1ccc(N(C)C)cc1` , thank you.
### Response label 1

### Prompt Dear all, I need the recorded test outcome for O=C1CSC(=O)N1C(CCc1ccncc1)COc1ccc(-c2cccc([N+](=O)[O-])c2)cc1 (stereo not given) , thank you.
### Response label 1

### Prompt Dear all, I need the recorded test outcome for `N#Cc1c(NC(=O)c2cccc3ccccc23)sc2c1CCCC2` , thank you.
### Response label 1

### Prompt Dear all, I need the recorded test outcome for OCC(O)C(O)C(O)CO (stereo not given) , thank you.
### Response label 0

### Prompt Dear all, I need the recorded test outcome for CC(O)(C#Cc1ccc2c(c1)N(c1nc(N)ncc1Cl)CC2)c1nccs1 (stereo not given) , thank you.
### Response label 0

### Prompt Dear all, I need the recorded test outcome for Cc1ccccc1C(=O)Nc1ccc(C(=O)N2CCCC(O)c3cc(Cl)ccc32)c(C)c1 (stereo not given) , thank you.
### Response label 0

### Prompt Dear all, I need the recorded test outcome for `O=C1c2c(O)cccc2[C@@H]([C@@H]2O[C@H](CO)[C@@H](O)[C@H](O)[C@H]2O)c2cc(CO)cc(O)c21` , thank you.
### Response label 0

### Prompt Dear all, I need the recorded test outcome for `Nc1nc2c(c(=O)[nH]1)N(C=O)[C@H](CNc1ccc(C(=O)N[C@@H](CCC(=O)O)C(=O)O)cc1)CN2` , thank you.
### Response label 0

### Prompt Dear all, I need the recorded test outcome for `O=C(O)[C@H](CC(=O)N1C[C@@H]2CCCC[C@H]2C1)Cc1ccccc1` , thank you.
### Response label 0

### Prompt Dear all, I need the recorded test outcome for `Oc1ccc([C@@H]2Oc3ccc(O)cc3[C@@H]3CCC[C@@H]32)cc1` , thank you.
### Response label 1

### Prompt Dear all, I need the recorded test outcome for CCC[C@@H](C=O)NC(=O)[C@H](CC(C)C)NC(=O)[C@H](CC(C)C)NC(=O)OCc1ccccc1 (Cbz-Leu-Leu-[Nva]-aldehyde) , thank you.
### Response label 1

### Prompt Dear all, I need the recorded test outcome for `O=C(Nc1cc2cc[nH]c2cn1)c1ccccc1` , thank you.
### Response label 1

### Prompt Dear all, I need the recorded test outcome for `COc1ccc(CCC(=O)c2c(O)cc(O[C@@H]3O[C@H](CO)[C@@H](O)[C@H](O)[C@@H]3O[C@@H]3O[C@@H](C)[C@H](O)[C@@H](O)[C@@H]3O)cc2O)cc1O` , thank you.
### Response label 0

### Prompt Dear all, I need the recorded test outcome for `Oc1ccc(-c2ccc(-c3cc(Nc4cccc(CNC5CC5)c4)n[nH]3)cc2)c(O)c1` , thank you.
### Response label 1

### Prompt Dear all, I need the recorded test outcome for `COC1=C(OC)C(=O)C(CC=C(C)CCC=C(C)CCC=C(C)CCC=C(C)CCC=C(C)CCC=C(C)CCC=C(C)CCC=C(C)CCC=C(C)CCC=C(C)C)=C(C)C1=O` , thank you.
### Response label 0
